FYI, the data here is from patent US20200017496A1.

Would you kindly list MIC ATB in combination for each of these molecules?
# Tested on: Klebsiella pneumoniae (KPN) isolates
# procedureDetails: MIC of compounds alone and combined with antibacterials, broth microdilution (CLSI)
# Type: cell-based
# measurementConditions: KPN 700603; AF1 @ 4 μg/mL
Answers are plain numbers, in mg/L.

>>> value("C=CC1=C(C(=O)O)N2C(=O)[C@@H](NC(=O)/C(=N\\O)c3csc(N)n3)[C@H]2SC1")
0.5
>>> value("CC1(C)S[C@@H]2[C@H](NC(=O)[C@H](N)c3ccc(O)cc3)C(=O)N2[C@H]1C(=O)O")
4
>>> value("COCC1=C(C(=O)O)N2C(=O)[C@@H](NC(=O)/C(=N\\OC)c3csc(N)n3)[C@H]2SC1")
0.5

Below is a list of molecules. For each, state its recorded MIC ATB in combination.
1. CC(C)(O/N=C(\C(=O)N[C@@H]1C(=O)N2C(C(=O)[O-])=C(C[n+]3ccccc3)CS[C@H]12)c1csc(N)n1)C(=O)O
2. CO/N=C(\C(=O)N[C@@H]1C(=O)N2C(C(=O)O)=C(COC(N)=O)CS[C@H]12)c1ccco1

1: 1; 2: 16

---

# Test system: Enterobacter cloacae (ECL) isolates
# procedureDetails: MIC of compounds alone and combined with antibacterials, broth microdilution (CLSI)
# Type: cell-based
# measurementConditions: ECL UFR200; AF1 @ 4 μg/mL
Mark condition met for MIC ATB in combination under 1 µg/mL, condition not met if at or over.

>>> categorylabel("CC(C)(O/N=C(\\C(=O)N[C@@H]1C(=O)N2C(C(=O)[O-])=C(C[n+]3ccccc3)CS[C@H]12)c1csc(N)n1)C(=O)O")
"condition met"
>>> categorylabel("CO/N=C(\\C(=O)N[C@@H]1C(=O)N2C(C(=O)O)=C(COC(N)=O)CS[C@H]12)c1ccco1")
"condition not met"
>>> categorylabel("C=CC1=C(C(=O)O)N2C(=O)[C@@H](NC(=O)/C(=N\\O)c3csc(N)n3)[C@H]2SC1")
"condition not met"

Here's an entry: CC1(C)S[C@@H]2[C@H](NC(=O)[C@H](N)c3ccc(O)cc3)C(=O)N2[C@H]1C(=O)O . Is its MIC ATB in combination below 1 µg/mL? condition not met

---

# System: Serratia marcescens (SMA) isolates
# procedureDetails: MIC of compounds alone and combined with antibacterials, broth microdilution (CLSI)
# Type: cell-based
# measurementConditions: SMA UFR135; AF1 @ 4 μg/mL
endpointName: MIC ATB in combination (µg/mL)
Give bare numbers, in µg/mL.

Some solved entries appear below for comparison.
>>> value("C=CC1=C(C(=O)O)N2C(=O)[C@@H](NC(=O)/C(=N\\OCC(=O)O)c3csc(N)n3)[C@H]2SC1")
2
>>> value("CC1(C)S[C@@H]2[C@H](NC(=O)[C@H](N)c3ccc(O)cc3)C(=O)N2[C@H]1C(=O)O")
256
>>> value("CC(C)(O/N=C(\\C(=O)N[C@@H]1C(=O)N2C(C(=O)[O-])=C(C[n+]3ccccc3)CS[C@H]12)c1csc(N)n1)C(=O)O")
2

Below is a list of molecules. For each, state its recorded MIC ATB in combination.
1. C=CC1=C(C(=O)O)N2C(=O)[C@@H](NC(=O)/C(=N\O)c3csc(N)n3)[C@H]2SC1
2. COCC1=C(C(=O)O)N2C(=O)[C@@H](NC(=O)/C(=N\OC)c3csc(N)n3)[C@H]2SC1

16
4

---

# Tested on: Klebsiella pneumoniae (KPN) isolates
# procedureDetails: MIC of compounds alone and combined with antibacterials, broth microdilution (CLSI)
# Format: cell-based
# measurementConditions: KPN 270077; AF1 @ 4 μg/mL
endpointName: MIC ATB in combination (µg/mL)
Numbers only, in µg/mL.

Some solved entries appear below for comparison.
>>> value("C=CC1=C(C(=O)O)N2C(=O)[C@@H](NC(=O)/C(=N\\OCC(=O)O)c3csc(N)n3)[C@H]2SC1")
0.5
>>> value("C=CC1=C(C(=O)O)N2C(=O)[C@@H](NC(=O)/C(=N\\O)c3csc(N)n3)[C@H]2SC1")
1
>>> value("COCC1=C(C(=O)O)N2C(=O)[C@@H](NC(=O)/C(=N\\OC)c3csc(N)n3)[C@H]2SC1")
0.5
>>> value("CC1(C)S[C@@H]2[C@H](NC(=O)[C@H](N)c3ccc(O)cc3)C(=O)N2[C@H]1C(=O)O")
4

Let's switch to this compound now.
I'd like to know its MIC ATB in combination. The compound in question is CO/N=C(\C(=O)N[C@@H]1C(=O)N2C(C(=O)O)=C(COC(N)=O)CS[C@H]12)c1ccco1 16

---

# measuredOn: OXA-15 (Pseudomonas aeruginosa, UniProt Q51574)
# Sequence (Q51574 22-275): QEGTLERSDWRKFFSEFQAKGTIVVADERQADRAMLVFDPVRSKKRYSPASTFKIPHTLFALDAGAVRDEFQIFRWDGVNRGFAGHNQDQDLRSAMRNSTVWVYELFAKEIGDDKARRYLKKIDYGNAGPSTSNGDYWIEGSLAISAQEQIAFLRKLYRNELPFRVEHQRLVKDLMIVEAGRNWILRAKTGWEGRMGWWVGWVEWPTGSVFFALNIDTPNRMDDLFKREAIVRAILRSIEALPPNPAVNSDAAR
# procedureDetails: biochemical
Would you kindly list IC50 for each of these compounds?
Please answer using the number first and the unit second.

>>> value("N#C[C@@H]1CC[C@@H]2CN1C(=O)N2OC(F)(F)C(=O)[O-].[Na+]")
"4 nM"

Let's switch to this compound now.
I'd like to know its IC50. The compound in question is NC(=O)[C@@H]1CC[C@@H]2CN1C(=O)N2OC(F)(F)C(=O)[O-].[Na+] 71 nM

---

# procedureDetails: Hydrolysis kinetics in buffers at 37° C., 4 μg/ml (LC-MS, Method 8)
# Type: physicochemical
# measurementConditions: Phosphate 10 mM pH 6.0
Would you kindly list Hydrolysis at 4 μg/ml at 37° C. (LC-MS) T50 (50% degradation time) for each of these molecules?

Some solved entries appear below for comparison.
>>> value("CCOC(=O)C(F)(F)ON1C(=O)N2C[C@H]1CC[C@H]2C(N)=O")
"<1 min"
>>> value("COCCCC(C)(C)OC(=O)C(F)(F)ON1C(=O)N2C[C@H]1CC[C@H]2C(N)=O")
"<5 min"
>>> value("NC(=O)[C@@H]1CC[C@@H]2CN1C(=O)N2OC(F)(F)C(=O)OC1CCOCC1")
"<1 min"
>>> value("COCC(COC)OC(=O)C(F)(F)ON1C(=O)N2C[C@H]1CC[C@H]2C(N)=O")
"<1 min"

I'd like to know its Hydrolysis at 4 μg/ml at 37° C. (LC-MS) T50 (50% degradation time). The molecule in question is CCCN(CCC)[C@H]1CC[C@H](OC(=O)C(F)(F)ON2C(=O)N3C[C@H]2CC[C@H]3C(N)=O)CC1 <1 min

---

Would you kindly list MIC ATB in combination for each of these molecules?
# Test system: Serratia marcescens (SMA) isolates
# procedureDetails: MIC of compounds alone and combined with antibacterials, broth microdilution (CLSI)
# Assay type: cell-based
# measurementConditions: SMA UFR134; AF1 @ 4 μg/mL
One number for each entry, in µg/mL.

Some solved entries appear below for comparison.
>>> value("C=CC1=C(C(=O)O)N2C(=O)[C@@H](NC(=O)/C(=N\\OCC(=O)O)c3csc(N)n3)[C@H]2SC1 [FIX, Cefixime]")
1
>>> value("C=CC1=C(C(=O)O)N2C(=O)[C@@H](NC(=O)/C(=N\\O)c3csc(N)n3)[C@H]2SC1 [CDR, Cefdinir]")
4
>>> value("COCC1=C(C(=O)O)N2C(=O)[C@@H](NC(=O)/C(=N\\OC)c3csc(N)n3)[C@H]2SC1 [POD, Cefpodoxime]")
2

Let's switch to this molecule now.
I'd like to know its MIC ATB in combination. The molecule in question is CO/N=C(\C(=O)N[C@@H]1C(=O)N2C(C(=O)O)=C(COC(N)=O)CS[C@H]12)c1ccco1 [FUR, Cefuroxime] 64

---

Let's go through some pIC50 measurements on OXA-23 (Acinetobacter baumannii, UniProt Q9L4P2) together.
Sequence (Q9L4P2 18-273): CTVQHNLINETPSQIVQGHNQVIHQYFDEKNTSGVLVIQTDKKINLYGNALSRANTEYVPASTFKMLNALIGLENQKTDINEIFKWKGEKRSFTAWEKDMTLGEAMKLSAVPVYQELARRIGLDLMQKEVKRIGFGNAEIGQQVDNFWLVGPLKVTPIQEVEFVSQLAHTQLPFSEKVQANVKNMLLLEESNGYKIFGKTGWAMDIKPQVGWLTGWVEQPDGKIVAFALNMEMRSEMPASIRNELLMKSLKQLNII
One number for each entry, as −log10 of the molar value.

>>> value("N#C[C@@H]1CC[C@@H]2CN1C(=O)N2OC(F)(F)C(=O)[O-].[Na+] [AF2]")
7.96

Let's switch to this molecule now.
I'd like to know its pIC50. The molecule in question is NC(=O)[C@@H]1CC[C@@H]2CN1C(=O)N2OC(F)(F)C(=O)[O-].[Na+] [AF1] 5.77

---

# System: Citrobacter freundii (CFR) isolates
# procedureDetails: MIC of compounds alone and combined with antibacterials, broth microdilution (CLSI)
# Assay type: cell-based
# measurementConditions: CFR UFR250; AF1 @ 4 μg/mL
# Protocol: Method 2: MIC of Compounds Alone and Combined with Antibacterials Against Bacterial Isolates. Compounds of the present invention were assessed against genotyped bacterial strains (Table 3, 4) alone or in combination with an antibacterial (Table 2). […] The MIC of the compounds was defined as the lowest concentration of said compounds that prevented bacterial growth as read by visual inspection. […]
endpointName: MIC ATB in combination

Some solved entries appear below for comparison.
>>> value("CO/N=C(\\C(=O)N[C@@H]1C(=O)N2C(C(=O)O)=C(COC(N)=O)CS[C@H]12)c1ccco1")
"8 µg/mL"
>>> value("COCC1=C(C(=O)O)N2C(=O)[C@@H](NC(=O)/C(=N\\OC)c3csc(N)n3)[C@H]2SC1")
"0.5 µg/mL"
>>> value("CC1(C)S[C@@H]2[C@H](NC(=O)[C@H](N)c3ccc(O)cc3)C(=O)N2[C@H]1C(=O)O")
"32 µg/mL"
>>> value("CC(C)(O/N=C(\\C(=O)N[C@@H]1C(=O)N2C(C(=O)[O-])=C(C[n+]3ccccc3)CS[C@H]12)c1csc(N)n1)C(=O)O")
"0.5 µg/mL"
>>> value("C=CC1=C(C(=O)O)N2C(=O)[C@@H](NC(=O)/C(=N\\OCC(=O)O)c3csc(N)n3)[C@H]2SC1")
"<=0.25 μg/mL"

Let's switch to this compound now.
API: value(readout= MIC ATB in combination, system= Citrobacter freundii (CFR) isolates, query= C=CC1=C(C(=O)O)N2C(=O)[C@@H](NC(=O)/C(=N\O)c3csc(N)n3)[C@H]2SC1 ) <=0.25 μg/mL
